tested on: RXF 393; assay: NCI tumour cell line growth inhibition, 48 h
Activity calls are given as the source filed them. Rule as the data show it: active = GI50 up to about 1.1 µM and inactive = higher.
Response enum: y for active, n for inactive

// known answers, use as guide
CC1(C)CCOC(Sc2ccccc2)C1 (stereo not given): n
COC(=O)/C=C1\C(=O)C=C2[C@@H]3C[C@H]4C[C@H](CC[C@@]4(C)N21)C3(C)NC(C)=O (stereo not given in full): n
Nc1nc(N)c(NC(=O)CCCO)c(=O)[nH]1: n
N=C(N)NS(=O)(=O)c1ccc(Nc2c3ccccc3nc3c(C(=O)NNCCO)cccc23)cc1: y
COc1cc2c3c(c1OC)C1(C=CC(=O)C=C1)CC3N(C(=O)OC(C)(C)C(Cl)(Cl)Cl)CC2 (stereo not given): n

Task item: Which result was noted for this compound in the test: `CCOC(=O)NC(Nc1ccc(S(=O)(=O)Nc2ccc(OC)nn2)cc1)(C(F)(F)F)C(F)(F)F`
Reply: n

Task item: Can you check `Cc1ncn(-c2ccccc2O)c1C` next?
Reply: n

Task item: Note, next up: `O=C1c2ccccc2C(=O)c2[nH]c(Cc3ccccc3F)nc21`
Reply: n

Task item: Try this compound next: `COc1ccc2cc(Oc3ccc(Cl)cc3)c(=O)oc2c1`
Reply: n

Task item: Now this one: `O=S1(=O)c2ccccc2N2CCCc3cc(Cl)cc1c32`
Reply: n
